tested on: TRPC4 (mouse), co-expressed with 5HT1a in HEK293; test: calcium flux potentiators in TRPC4/5HT1a cells, confirmation, counter-screen for TRPC4 potentiator project, cell-based, second counter screen, HEK293 TRPC4/5HT1a, Fluo-4 (AID 434979); settings: Fluo-4 calcium flux, at 10 µM; stronger effect = higher value, serotonin added at its EC20 dose unless noted
Calls of active or inactive are those of the source.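 The calls were made as follows: active = signal rise over 3 SD above mean of control wells given weak agonist, in both repeats and first screen; inactive = the rest.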
Attribute: potentiation
assay-endpoint: potentiation

In [3]: df
Out[3]:
                                   compound                                 result
0  C=CCOC(=O)C1=C(C)OC(N)=C(C#N)[C@@]12C(=O)N(CC(N)=O)c1ccccc12                         7.13% (active)
1                      Clc1ccc(N2CCNCC2)nn1                         16.3% (active)
2  CCOC(=O)C(O)(c1ccc(NC(=S)NC(=O)c2ccc(Cl)cc2Cl)c(C)c1)C(F)(F)F (configuration not stated)                         28.1% (active)
3  CCc1ccc(OCCCN=C(C)c2c(O)n(C)c(=O)n(C)c2=O)cc1  13.7% [stronger effect = higher value] (active)
4           Nc1cc(N2CCNCC2)ccc1[N+](=O)[O-]                         38.4% (active)
5                 Clc1ccc(OCC#CCN2CCCC2)cc1                           26% (active)
6  CCN1CCN(c2cc(N3CCCC3)c([N+](=O)[O-])cc2F)CC1                         17.9% (active)

----------
assay: calcium flux activation in mu-opioid HEK293 cells, confirmation, counter-screen for TRPC4 activator project, cell-based, HEK293 mu-opioid receptor line (AID 449723); settings: Fluo-4 calcium fluorescence, at 10 µM;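 also: counter screen cells carry the mu-opioid receptor alone and lack TRPC4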
Calls of active or inactive are those of the source.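 Rule for the calls: active = hit in primary screen, with calcium signal over 5 SD above buffer well mean in both duplicates; inactive = the rest.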
Labels: 1.0 for active, 0.0 for inactive

                                    molecule  class
 0  CN(C)C=C1C(=O)N(C2CCCCC2)C(=O)N(C2CCCCC2)C1=O    1.0
 1  CCN1CCN(c2cc(N3CCCC3)c([N+](=O)[O-])cc2F)CC1    0.0
 2             N=c1n(CCO)c2ccccc2n1Cc1ccccc1    0.0
 3  Cc1ccc(-c2nc(N(C)C3CCN(C)CC3)c3ccccc3n2)cc1    0.0
 4  COc1ccc2c(c1O)[C@]13CCN(C)[C@H](C2)[C@@H]1CCC(=O)C3    0.0
 5  CCC1(C)CC(CCNCc2ccc(N(C)C)cc2)(c2ccc(F)cc2)CCO1 (stereo not drawn)    0.0
 6     Oc1c(Br)cc(Br)cc1CN1CCN(Cc2ccccc2)CC1    0.0
 7  CCn1ccnc1CN1CCCC(C(=O)c2cccc(C(F)(F)F)c2)C1 (stereo not drawn)    0.0
 8   O=[N+]([O-])c1ccc(N2CCNCC2)cc1N1CCCCCC1    0.0
 9         Cc1ccc(C)c(NC(=S)NCCc2cnc[nH]2)c1    0.0
10  COc1ccc(C2NCCc3[nH]cnc32)cc1 (stereo not drawn)    0.0
11                         CCc1n[nH]c(CCN)n1    0.0
12              CC(C)CNc1c2c(nc3ccccc13)CCC2    0.0
13     CN1CCN(c2cccc3c2C(=O)c2ccccc2C3=O)CC1    0.0
14   O=C(CN1CCCC1)Nc1ccc(Cl)cc1C(=O)c1ccccc1    0.0
15  CCOC(=O)C1(CCc2ccccc2)CCN(Cc2ccc(NC(C)=O)cc2)CC1    0.0
16  CCCCN1C(=O)NC(=O)C2(Cc3c(nc4c(C)cccn4c3=O)N3CCc4ccccc4C32)C1=O (stereo not drawn)    0.0
17  CC1(C)CC(CCNCc2ccc3c(c2)OCO3)(Cc2ccccc2)CCO1 (stereo not drawn)    0.0
18  CN(C)C(CNC(=O)Cc1c(Cl)cccc1Cl)c1ccccc1 (stereo not drawn)    0.0
19  Cc1c(P(=S)(c2ccccc2)c2ccccc2)[n+]2ccccc2n1C    0.0
20   CCOc1cc(CNCCc2c[nH]c3ccccc23)cc(Cl)c1OC    0.0
21  CN(C)C(CNC(=O)Cc1ccc(Br)cc1)c1ccccc1 (stereo not drawn)    0.0
22  C=CCOC(=O)C1=C(C)OC(N)=C(C#N)[C@@]12C(=O)N(CC(N)=O)c1ccccc12    0.0

----------
biological target: Short transient receptor potential channel 4 (Mus musculus) (UniProt Q9QUQ5); assay: calcium flux activators in TRPC4/5HT1a cells, counter-screen for TRPC4 activator project, cell-based, second counter screen, HEK293 TRPC4/5HT1a, Fluo-4 (AID 434977); settings: Fluo-4 calcium flux, at 10 µM
Calls of active or inactive are those of the source.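 The calls were made as follows: active = calcium signal rise above buffer-control mean plus 5 SD in both duplicates, and also a hit in the primary screen; inactive = the rest.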
Outcome codes: TRUE (active), FALSE (inactive)

In [3]: df
Out[3]:
                                   molecule                           measured_target  class
0  CN(C)C(CNC(=O)Cc1c(Cl)cccc1Cl)c1ccccc1 (stereo unspecified)  Short transient receptor potential channel 4 (Mus musculus) (UniProt Q9QUQ5)  FALSE
1               FC(F)(F)c1ccc(CN2CCNCC2)cc1  Short transient receptor potential channel 4 (Mus musculus) (UniProt Q9QUQ5)  FALSE
2  COc1ccc(C(=O)C2CN(C)CC2c2ccc(Cl)cc2)cc1 (stereo unspecified)  Short transient receptor potential channel 4 (Mus musculus) (UniProt Q9QUQ5)  FALSE
3             N=c1n(CCO)c2ccccc2n1Cc1ccccc1  Short transient receptor potential channel 4 (Mus musculus) (UniProt Q9QUQ5)  FALSE
4    CCC(=O)C(CCN1CCOCC1)(c1ccccc1)c1ccccc1  Short transient receptor potential channel 4 (Mus musculus) (UniProt Q9QUQ5)   TRUE
5  C#CCN1C(=O)C2(C(C#N)=C(N)OC(C)=C2C(=O)OCc2ccccc2)c2ccccc21 (stereo unspecified)  Short transient receptor potential channel 4 (Mus musculus) (UniProt Q9QUQ5)  FALSE

----------
tested on: TRPC4 beta (transient receptor potential cation channel C4), mouse; test: activators of mouse TRPC4 channel, confirmation, cell-based, Fluo4 calcium, HEK293 TRPC4beta/mu-opioid, duplicates, 10 µM (AID 2426); conditions: Fluo4 calcium fluorescence, at 10 µM; stronger effect = higher value;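 as to activation: percent rise of integrated ratio over buffer wells lacking compound which define 0%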
The source made the active and inactive calls.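 The calls were made as follows: active = fluorescence ratio normalized to control raised more than 50% in primary screen plus both repeat runs; inactive = the rest.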
assay-endpoint: activation

>>> df
                                    molecule  assay_endpoint         result
 0  CCC(=O)OC1(c2cccc(C)c2)CC(C)N(C)CC1C (stereo unspecified)      activation   79% (active)
 1      COc1ccccc1CC(=O)N1CCN(CCc2ccccc2)CC1      activation   79% (active)
 2                Cc1ccc(Cl)cc1N1CCN(CCN)CC1      activation  131% (active)
 3  CCOC(=O)C1(CCc2ccccc2)CCN(Cc2ccc(NC(C)=O)cc2)CC1      activation   83% (active)
 4  Cc1ccc(C2CN(C)CC2C(=O)c2ccc(F)cc2)cc1 (stereo unspecified)      activation       inactive
 5  COc1ccc(CN2CCCC(C(=O)c3sccc3C)C2)cc1O (stereo unspecified)      activation       inactive
 6  CCOC(=O)C(O)(c1ccc(NC(=S)NC(=O)c2ccc(Cl)cc2Cl)c(C)c1)C(F)(F)F (stereo unspecified)      activation       inactive
 7  CCOC(=O)C1(CCc2ccccc2)CCN(Cc2cccc3c2OCO3)CC1      activation       inactive
 8         COc1ccc(CNCCc2ccc3c(c2)OCO3)cc1Br      activation  141% (active)
 9  COc1ccc(C[C@@H]2c3cc(O)c(OC)cc3CCN2C)cc1O      activation       inactive
10  Cc1ccsc1C(=O)C1CCCN(Cc2ccccc2O)C1 (stereo unspecified)      activation       inactive

----------
test system: TRPC4 beta (transient receptor potential cation channel C4), mouse; assay: activators of mouse TRPC4 channel, confirmation, cell-based, Fluo4 calcium, HEK293 TRPC4beta/mu-opioid, duplicates, 10 µM (AID 2426); details: Fluo4 calcium fluorescence, at 10 µM
Activity calls are given as the source filed them.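 How the source made its calls: active means fluorescence ratio normalized to control raised more than 50% in primary screen plus both repeat runs; inactive means the rest.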
Classes used: active, inactive

>>> print(df.to_string())
                                    compound                           measured_target     class
 0  CN(C)C=C1C(=O)N(C2CCCCC2)C(=O)N(C2CCCCC2)C1=O  TRPC4 beta (transient receptor potential cation channel C4), mouse    active
 1              COc1ccc(C)cc1NC1=NC(C)(C)CS1  TRPC4 beta (transient receptor potential cation channel C4), mouse  inactive
 2  Clc1ccc2c(c1)C(c1ccccc1Cl)=NCc1nnc(N3CCN(CCOc4ccccc4)CC3)n1-2  TRPC4 beta (transient receptor potential cation channel C4), mouse  inactive
 3   CCOc1cc(CNCCc2c[nH]c3ccccc23)cc(Cl)c1OC  TRPC4 beta (transient receptor potential cation channel C4), mouse    active
 4  COC(=O)C(O)(c1ccc(NC(=S)NC(=O)c2ccc(Cl)cc2Cl)c(C)c1)C(F)(F)F (configuration not stated)  TRPC4 beta (transient receptor potential cation channel C4), mouse  inactive
 5  CN(C)C(CNC(=O)Cc1ccc(Br)cc1)c1ccccc1 (configuration not stated)  TRPC4 beta (transient receptor potential cation channel C4), mouse    active
 6     O=[N+]([O-])c1ccc(N2CCCNCC2)c2ncccc12  TRPC4 beta (transient receptor potential cation channel C4), mouse    active
 7  COc1ccc(C(CNC(=O)c2ccc3c(c2)CCC3)N(C)C)cc1 (configuration not stated)  TRPC4 beta (transient receptor potential cation channel C4), mouse    active
 8  CN(C)C(CNC(=O)Cc1c(Cl)cccc1Cl)c1ccccc1 (configuration not stated)  TRPC4 beta (transient receptor potential cation channel C4), mouse    active
 9  CCOc1c(Cl)cc(CNC(C)C(O)c2ccccc2)cc1OC (configuration not stated)  TRPC4 beta (transient receptor potential cation channel C4), mouse  inactive
10  Cc1ccc(-n2cc(CNC(C)Cc3cnccn3)c(-c3cccc(C)c3)n2)cc1 (configuration not stated)  TRPC4 beta (transient receptor potential cation channel C4), mouse    active
11  C=CCOC(=O)C1=C(C)OC(N)=C(C#N)[C@@]12C(=O)N(CC(N)=O)c1ccccc12  TRPC4 beta (transient receptor potential cation channel C4), mouse  inactive
12  COc1ccc(C(CNC(=O)Cc2ccc(Cl)c(Cl)c2)N(C)C)cc1 (configuration not stated)  TRPC4 beta (transient receptor potential cation channel C4), mouse    active
13           Cc1ccc(NC(=S)NCCc2cnc[nH]2)cc1C  TRPC4 beta (transient receptor potential cation channel C4), mouse    active
14  Cc1ccc(-c2nc(N(C)C3CCN(C)CC3)c3ccccc3n2)cc1  TRPC4 beta (transient receptor potential cation channel C4), mouse  inactive
15                CCN1CCN(Cc2cc(Br)ccc2O)CC1  TRPC4 beta (transient receptor potential cation channel C4), mouse  inactive
16   COc1ccc(Br)cc1CN1CCN(C(=O)Cc2ccccc2)CC1  TRPC4 beta (transient receptor potential cation channel C4), mouse  inactive
17   CN1CCN(c2ccc([N+](=O)[O-])c3cccnc23)CC1  TRPC4 beta (transient receptor potential cation channel C4), mouse    active
18  O=C1OC(c2ccc([N+](=O)[O-])cc2)=N/C1=C/N1CC2CC(C1)c1cccc(=O)n1C2 (configuration not stated)  TRPC4 beta (transient receptor potential cation channel C4), mouse    active
19  CC(C)CN(CC(C)C)c1ccc(C=C2C(=O)NC(=S)NC2=O)cc1[N+](=O)[O-]  TRPC4 beta (transient receptor potential cation channel C4), mouse  inactive
20  COc1ccc(C(=O)C2CCCN(C3CSCCSC3)C2)cc1OC (configuration not stated)  TRPC4 beta (transient receptor potential cation channel C4), mouse    active
21  Cc1ccc(C[n+]2c(-c3ccc(C)cc3)cc(-c3ccc(C)cc3)cc2-c2ccc(C)cc2)cc1  TRPC4 beta (transient receptor potential cation channel C4), mouse    active
